Origin of the recorded values: PubChem BioAssay (NCI)

Tested on: UACC-257 melanoma
protocol_details: NCI-60 one-dose screen, 48 h (100 = growth as untreated, 0 = no growth, -100 = all killed)
test_parameters: 10 µM unless noted
This is part of a sample that, as a whole, favours compounds with a hit. Of some 83,000 tested, about 20% had one in any assay.
For each record, write down the corresponding growth.
Answers are plain numbers, in %.

Previously resolved entries follow.
C#CCOc1cccc(Nc2c(Cl)c(CCl)nc3ccc(Oc4ccccc4)cc23)c1
90
CCN1CCN(CCOc2ccc(CNc3ccc4nc(CCC5CCCCC5)[nH]c4c3)cc2)CC1
-69.4
CCN=c1sc2c(n1NC(=O)c1cc3ccc1CCc1ccc(cc1)CC3)C(=O)c1ccccc1C2=O
-90.5

For every item in the list below, what is its measured growth?
1. COC(=O)c1cc(-c2cc(OC)c(OC)c(OC)c2)[nH]c1N/N=C/c1c(Cl)cccc1Cl
2. C=C(C)[C@@H]1CC[C@]2(COC(=O)c3cccnc3)CC[C@]3(C)[C@H](CC[C@@H]4[C@@]5(C)CCCN(C(=O)c6cccnc6)C(C)(C)[C@@H]5CC[C@]43C)[C@@H]12
3. COc1cc2c(c(OC)c1OC)C(=O)CC(c1cccc(C(=O)Nc3ccc(Br)cc3)c1)O2 (stereo not drawn)

1: 45.6; 2: 19.9; 3: 74.7

For every item in the list below, what is its measured growth?
1. CC1(C)CC[C@]2(CO)CC[C@]3(C)[C@H](CC[C@@H]4[C@@]5(C)CC[C@H](O)C(C)(C)[C@@H]5CC[C@]43C)[C@H]2[C@H]1O
2. O=C(/C=C/C12c3ccccc3C(c3ccccc31)C1C(=O)NC(=O)C12)c1cccs1 (stereo not drawn)

104
45.7

* * *

System: SK-MEL-5 melanoma
protocol_details: NCI-60 one-dose screen, 48 h
test_parameters: 10 µM unless noted
The panel holds about 83,000 compounds, 20% with a hit somewhere; the sample as a whole holds those more often. Calls of active or inactive are those of the source. How the source made its calls: active means growth percent below 10; inactive means the rest.
Select the correct class. Options are active, inactive and nothing else.

Past entries and their recorded results:
Cn1cc(-c2ccc3c(Nc4cccc(NC(=O)Nc5cccc(F)c5)c4)ncnc3c2)cn1
inactive
CCCNNC(=O)c1ccc(CNC(=O)/C=C/c2ccccc2)cc1
inactive
COc1cc(OCc2cccc(-c3ccc4c(c3)OCCO4)c2C)cc(OC)c1C=O
active
O=C1Nc2ccccc2/C1=C/c1cccn1CCCCCCn1c2ccccc2c(=O)c2ccccc21
inactive

Record lookup: outcome of this test for CC/C(=C(/c1ccc(Cl)cc1)c1ccc(OCCN2CCCCCC2)cc1)c1ccccc1 ?
inactive

* * *

For each record, write down the corresponding growth.
System: UACC-62 melanoma
protocol_details: NCI-60 one-dose screen, 48 h (100 = growth as untreated, 0 = no growth, -100 = all killed)
test_parameters: 10 µM unless noted
About 83,000 compounds went through this panel and 20% of them were active in at least one assay; those are over-represented in the sample as a whole. The source made the active and inactive calls. Rule for the calls: active = growth percent below 10; inactive = the rest.

Previously resolved entries follow.
COc1cc(/C=C2\C(=O)N(CCOc3cc(O)c4c(=O)cc(-c5ccccc5)oc4c3)c3ccccc32)cc(OC)c1O
24.6% (inactive)
Nc1nc(Nc2ccc([N+](=O)[O-])cc2O)nc(C(Cl)(Cl)Cl)n1
41.1% (inactive)
O=C(/C=C/c1ccco1)c1ccc(Nc2ccnc3cc(Cl)ccc23)cc1
108% (inactive)
O=C(O)c1nn(-c2ccc(Cl)cc2)nc1N1CCCC1
99.6% (inactive)

For every item in the list below, what is its measured growth?
1. CC(C)c1nc(N(C)S(C)(=O)=O)nc(-c2ccc(F)cc2)c1/C=C/C(=O)C[C@@H](O)CC(=O)O
2. O=C(OCc1ccc2c(Br)cc(Br)c(O)c2n1)N1CCN(C(=O)c2cc3ccccc3[nH]2)CC1

99.5% (inactive)
19% (inactive)

For every item in the list below, what is its measured growth?
1. C(=N\Nc1nnc2n1N=C(c1ccccc1)CS2)/c1ccc(OCc2ccccc2)cc1
2. CCOC(=O)c1c(C)c2c(n1Cc1ccccc1)CSc1cc(C#N)c(=O)[nH]c1-2
3. CCCS(=O)(=O)Nc1cccc(Nc2ncnc3cc(NC(=O)CCl)ccc23)c1Cl

89.8% (inactive)
70.9% [100 µM] (inactive)
-66.2% (active)

* * *

Tested on: SNB-75 CNS
protocol_details: NCI-60 one-dose screen, 48 h (100 = growth as untreated, 0 = no growth, -100 = all killed)
test_parameters: 10 µM unless noted
Compounds without any hit were thinned out: in the full panel of roughly 83,000, 20% have a hit.
In plain terms, low growth, meaning strictly below 70%, gives t, and everything else gives f.

Past entries and their recorded results:
COc1cccc(CNc2nnc(C)c(C)n2)c1O
f
O=C(O)c1nn(-c2ccc(Cl)cc2)nc1N1CCCC1
f
CNC(=O)c1cc(Oc2ccc3nc(NC(=O)c4cc(C(F)(F)F)cc(C(F)(F)F)c4)sc3c2)ccn1
t

Lab note: growth threshold 70%. Does this compound come in strictly under it? [2H]C([2H])([2H])Oc1ccc(/C=C/C(=O)/C=C(/C=C/c2ccc(OC([2H])([2H])[2H])c(OC([2H])([2H])[2H])c2OC([2H])([2H])[2H])OB(F)F)c(OC([2H])([2H])[2H])c1OC([2H])([2H])[2H]
t

Note, next up: O=C(O)CCCN1C(=O)CSC1=S
f

Note, next up: N#Cc1nn(-c2ccccn2)c(N)c1C#N
f

Note, next up: c1ccc2[nH]c(-c3ccc(-c4nccc5c4[nH]c4ccccc45)cc3)nc2c1
t

Note, next up: COc1ccc(C2CC(=O)Oc3c(OC)c4c(c(OC)c32)OCO4)cc1 (stereo not given)
f

* * *

Tested on: CCRF-CEM leukemia
protocol_details: NCI-60 one-dose screen, 48 h
test_parameters: 10 µM unless noted
The panel holds about 83,000 compounds, 20% with a hit somewhere; the sample as a whole holds those more often. Calls of active or inactive are those of the source. The calls were made as follows: active = growth percent below 10; inactive = the rest.
Select the correct class. Options are active, inactive and nothing else.

Past entries and their recorded results:
COc1cc2nc3cc([N+](=O)[O-])ccc3c(NCCCNCCO)c2cc1OC
active
CN(C)CC1C(=O)O[C@H]2[C@H]1CC/C(COC(=O)NCc1ccc(Cn3c(=O)sn(CCCI)c3=O)cc1)=C\CC[C@@]1(C)O[C@@H]21 (some centres undefined)
active
COC1CC(O)C2=C(CC3C(/C(C)=C\CC=C(C)C)CCC3(C)O2)C1=O (centres undefined)
inactive
CC1(C)C2=C(C(=O)N1Cc1ccccc1)C(c1ccco1)N(C(=O)C1CCC1)CCN2 (centres undefined)
inactive
CC(=O)/C(Br)=C/c1ccc(Br)o1
active
CC1(C)CCC[C@]23C(=O)O[C@](O)(C(=O)C4=C[C@@](C)(/C=C/CCCc5ccc6ccc7cccc8ccc5c6c78)CC[C@@]42O)[C@@H]13
active
O=C(CSc1nnc(-c2cc(-c3ccc(Cl)cc3)nc3ccccc23)n1-c1ccccc1)Nc1ccc(Cl)cc1
inactive
O=C(CN1C(=O)NC2NC(=O)NC21)N/N=C/c1cccc([N+](=O)[O-])c1 (centres undefined)
inactive

Record lookup: outcome of this test for COc1cccc(CNc2nnc(C)c(C)n2)c1O ?
inactive

* * *

For each record, write down the corresponding growth.
System: RXF 393 renal
protocol_details: NCI-60 one-dose screen, 48 h (100 = growth as untreated, 0 = no growth, -100 = all killed)
test_parameters: 10 µM unless noted
This is part of a sample that, as a whole, favours compounds with a hit. Of some 83,000 tested, about 20% had one in any assay.
Numbers only, in %.

Previously resolved entries follow.
O=C1C=CC2(O)OC(c3ccccc3)CC(=O)C2=C1O (stereo not given)
94
COc1ccc(/C=C\c2cc(OC)c(OC)c(OC)c2)cc1OCC(=O)Nc1nc2ccccc2s1
20.6

For every item in the list below, what is its measured growth?
1. CC(=O)c1ccc(Nc2nccc(-c3ccc(Cl)cc3)n2)cc1
2. COc1ccc(C(=O)/C=C/c2ccc(Cl)cc2)cc1S(N)(=O)=O
3. COc1cccc(CNc2nnc(C)c(C)n2)c1O
4. CN(Cc1ccccc1)c1nc(Cl)c(C2CC(c3ccc(Cl)cc3)=NN2c2cc(Cl)cc(Cl)c2)s1 (stereo not given)
5. COc1cc(/C=C/C(=O)c2ccc(-n3cc(CN4CCN(c5cc6c(cc5F)c(=O)c(C(=O)O)cn6C5CC5)CC4)nn3)cc2)cc(OC)c1OC

103
97.4
123
104
55.7

For every item in the list below, what is its measured growth?
1. CN(C)C(=O)OCc1ccc2c(Cl)cc(Cl)c(O)c2n1
2. COc1ccc(C2=NN3C(C2)c2cc(Br)ccc2OC3c2ccncc2)cc1 (stereo not given)
3. O=C(Oc1ccccc1)c1cc(O)c(O)c(O)c1
4. Cc1nc2ccccc2c(/C=C/c2ccc(Cl)cc2)c1C(=O)/C=C/c1ccccc1
5. Cn1ncc(CC(=O)O)c1-n1nnc2cc(Cl)ccc2c1=O
6. C=C(c1ccc(OC)c(/C=C/C(=O)c2cc(OC)c(OC)c(OC)c2)c1)c1cc(OC)c(OC)c(OC)c1

1: 67.6; 2: 95.4; 3: 110; 4: -41.8; 5: 114; 6: -68.5
